Cited source for all entries: PubChem BioAssay (Tox21)

# ASSAY: qHTS assay to identify small molecule antagonists of the constitutive androstane receptor (CAR) signaling pathway - cell viability counter screen (AID 1224837); note: nearly all actives have a fitted effect of over 45% in size
# DETAILS: HepG2-CYP2B6-hCAR viability, CellTiter-Fluor, 23 h, co-treated with 50 nM CITCO; series mostly up to 92.4 µM
Records with an inconclusive call do not appear. The source made the active and inactive calls. Calls come from the whole dose curve; as a rule, active = well fitted cell-killing curve with a large enough effect in the repeat runs; inconclusive = weak or mixed curves, or effect the other way; inactive = flat fitted curve, though single readings scatter.
Output constraint: value belongs to 1 (active), -1 (inactive)

CCN(CC)c1cccc(C)c1; -1
CO[C@H]1C=CO[C@@]2(C)Oc3c(C)c(O)c4c(O)c(cc(O)c4c3C2=O)NC(=O)/C(C)=C\C=C/[C@H](C)[C@H](O)[C@@H](C)[C@@H](O)[C@@H](C)[C@H](OC(C)=O)[C@@H]1C; 1
Cn1cccc1; -1
CC(C)CCOCCC(C)C; -1
CC(C)c1ccccc1N; -1
CO[Si](CCC1CCC2OC2C1)(OC)OC (stereo unspecified); -1

Now, please, on to the next compound.
Kindly provide the recorded test outcome for the following compound: COC(=O)C1=C(C)NC(C)=C(C(=O)OCCCN2CCC(c3ccccc3)(c3ccccc3)CC2)C1c1cccc([N+](=O)[O-])c1 (stereo unspecified)
1
